Target: T1, recombinant hPEPT1 receptor domain (human PEPT1, amino acid residues 391-571), His-tag fusion protein (human, UniProt P46059 391-571)
T1 construct: purified under denaturing conditions; coated on plates
T1 sequence: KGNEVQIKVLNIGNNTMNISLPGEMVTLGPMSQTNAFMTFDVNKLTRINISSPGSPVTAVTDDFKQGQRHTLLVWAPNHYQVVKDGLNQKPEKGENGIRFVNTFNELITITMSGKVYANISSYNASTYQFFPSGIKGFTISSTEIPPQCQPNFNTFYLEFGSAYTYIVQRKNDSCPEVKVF
Assay: phage ELISA on coated hPEPT1
Ends that are not written are not given here.
This listing pairs binders with measured OD.

Previously resolved entries follow.
[[record]]
binder = "SFLRFQSPRFEDYSRTISRLRNATNPSNVSDAHNNRALA (also: displayed as N-terminal pIII fusion on M13 phage, M13 phage displaying this insert as N-terminal pIII fusion; whole phage in the ELISA; not shown: M13 phage particle / pIII display carrier (and vector flanks)) [phage PAX18]"
quantity = "OD"
test_result = "0.416 OD 650 nm"

[[record]]
binder = "RASTQGGRGVAPEFGASVLGRGCGSATYYTNSTSCKDAMGHNYS (cysteine pairing not given here; also: displayed as N-terminal pIII fusion on M13 phage, M13 phage displaying this insert as N-terminal pIII fusion; whole phage in the ELISA; not shown: M13 phage particle / pIII display carrier (and vector flanks)) [phage PAX40]"
quantity = "OD"
test_result = "0.461 OD 650 nm"

[[record]]
binder = "SARDSGPAEDGSRAVRLNGVENANTRKSSRSNPRGRRHP (also: displayed as N-terminal pIII fusion on M13 phage, M13 phage displaying this insert as N-terminal pIII fusion; whole phage in the ELISA; not shown: M13 pIII coat protein and phage particle (display carrier)) [phage P31]"
quantity = "OD"
test_result = "0.807 OD 650 nm"


Query SSADAEKCAGSLLWWGRQNNSGCGSPTKKHLKHRNRSQTSSSSH (cysteine pairing not given here; also: displayed as N-terminal pIII fusion on M13 phage, M13 phage displaying this insert as N-terminal pIII fusion; whole phage in the ELISA; not shown: M13 pIII coat protein and phage particle (display carrier)) [phage P90] yields OD of 1.12 OD 650 nm
